# Test system: human IgG antibodies in human serum samples
# method_notes: EIA of human antibody reactivities to overlapping synthetic peptides of TTV ORF1 and ORF2 (Tables 2 and 3)
# Assay type: binding
# measurement_context: human serum sample 11, negative for TTV DNA by PCR; serum diluted 1:100; OD over 0.500 considered positive

- substance: "QKESLLFPPVKLLRRVP (Peptide Immunogen) [compound 69, overlapping synthetic peptide of TTV ORF1]"
  optical density (OD) at 405 nm: "0.13 OD"
- substance: "PDEKSQREILLNKIASY (Peptide Immunogen) [compound 29, overlapping synthetic peptide of TTV ORF1]"
  optical density (OD) at 405 nm: "0.14 OD"
- substance: "20: overlapping synthetic peptide of TTV ORF1 (TATTTTYAYPGTNRPP) [compound 20]"
  optical density (OD) at 405 nm: "0.11 OD"
- substance: "YTDIKYNPFTDRGEGNM (Peptide Immunogen) [compound 44, overlapping synthetic peptide of TTV ORF1]"
  optical density (OD) at 405 nm: "0.14 OD"
- substance: "GLYSSIWLSPGRSYFET (Peptide Immunogen) [compound 42, overlapping synthetic peptide of TTV ORF1]"
  optical density (OD) at 405 nm: "0.19 OD"
- substance: "22: overlapping synthetic peptide of TTV ORF1 (TATTTTYAYPGTNR) [compound 22]"
  optical density (OD) at 405 nm: "0.11 OD"
- substance: "2: overlapping synthetic peptide of TTV ORF1 (YAYPGTNRPPV) [compound 2]"
  optical density (OD) at 405 nm: "0.14 OD"
